Experiment Notes: Selectivity index, ratio of toxic concentration for human WISH cells to ED50 for vesicular stomatitis virus infected in human WISH cells
Assay type: toxicity, cell-based
Settings: read-out: Selectivity Index
Recorded measurements of selectivity ratio, one per entry
Could you respond with only the numeric value?

Example compounds with recorded selectivity ratio:
[
  {
    "Smiles Data": "O=c1[nH]c(=O)n([C@@H]2O[C@H](CO)[C@@H](O)[C@H]2O)c2no[n+]([O-])c12",
    "Outcome Measure": "selectivity ratio",
    "Value": 26.9
  },
  {
    "Smiles Data": "O=c1[nH]cnc2c1ncn2[C@H]1CC[C@@H](CO)O1",
    "Outcome Measure": "selectivity ratio",
    "Value": 3.34
  }
]

From here, focus on the item given below.
So for Nc1nc2c(ncn2COCCO)c(=O)[nH]1 , the logged selectivity ratio turned out to be 2.4

====

Tested on: WISH
Experiment Notes: Cytotoxicity against human WISH cells
Type: cell-based
Recorded measurements of Activity, one per entry
Respond numerically; units are µmol/L and should not be typed.

Example molecules with recorded Activity:
[
  {
    "Smiles Data": "CC(=O)OCCOCn1c(=O)n(C)c(=O)c2c1no[n+]2[O-]",
    "Experimental Target": "WISH",
    "Activity (µmol/L)": 2077
  },
  {
    "Smiles Data": "CC(=O)OC[C@H]1O[C@@H](n2c(=O)[nH]c(=O)c3c2no[n+]3[O-])[C@H](OC(C)=O)[C@@H]1OC(C)=O",
    "Experimental Target": "WISH",
    "Activity (µmol/L)": 1459
  }
]

Entry CCn1c(=O)c2c(no[n+]2[O-])n(COCCOC(C)=O)c1=O , WISH data, Activity value: 408

====

System: WISH
Experiment Notes: Cytotoxicity against human WISH cells
Format: cell-based
Outcome Measure: Activity (µmol/L)
Respond numerically; units are µmol/L and should not be typed.

Example compounds with recorded Activity:
[
  {
    "Smiles Data": "CCn1c(=O)c2c(no[n+]2[O-])n([C@@H]2O[C@@H](COC(C)=O)[C@H](OC(C)=O)[C@H]2OC(C)=O)c1=O",
    "Experimental Target": "WISH",
    "Measure Unit": "µmol/L",
    "Activity": 20
  },
  {
    "Smiles Data": "CCn1c(=O)c2c(no[n+]2[O-])n(COC(COC(C)=O)COC(C)=O)c1=O",
    "Experimental Target": "WISH",
    "Measure Unit": "µmol/L",
    "Activity": 1475
  },
  {
    "Smiles Data": "O=c1[nH]c(=O)n([C@@H]2O[C@H](COCc3ccccc3)[C@@H](OCc3ccccc3)[C@H]2OCc2ccccc2)c2no[n+]([O-])c12",
    "Experimental Target": "WISH",
    "Measure Unit": "µmol/L",
    "Activity": 650
  }
]

So for CC(=O)OC[C@@H]1O[C@@H](n2c(=O)n(C)c(=O)c3c2no[n+]3[O-])[C@H](OC(C)=O)[C@H]1OC(C)=O , the logged Activity turned out to be 300

So for CC(=O)OC[C@H]1O[C@H](n2c(=O)[nH]c(=O)c3c2no[n+]3[O-])[C@@H](OC(C)=O)[C@@H]1OC(C)=O , the logged Activity turned out to be 398
